# Tgt: hPDE10A2 (Homo sapiens, UniProt Q9Y233)
# Sequence (Q9Y233 267-1055): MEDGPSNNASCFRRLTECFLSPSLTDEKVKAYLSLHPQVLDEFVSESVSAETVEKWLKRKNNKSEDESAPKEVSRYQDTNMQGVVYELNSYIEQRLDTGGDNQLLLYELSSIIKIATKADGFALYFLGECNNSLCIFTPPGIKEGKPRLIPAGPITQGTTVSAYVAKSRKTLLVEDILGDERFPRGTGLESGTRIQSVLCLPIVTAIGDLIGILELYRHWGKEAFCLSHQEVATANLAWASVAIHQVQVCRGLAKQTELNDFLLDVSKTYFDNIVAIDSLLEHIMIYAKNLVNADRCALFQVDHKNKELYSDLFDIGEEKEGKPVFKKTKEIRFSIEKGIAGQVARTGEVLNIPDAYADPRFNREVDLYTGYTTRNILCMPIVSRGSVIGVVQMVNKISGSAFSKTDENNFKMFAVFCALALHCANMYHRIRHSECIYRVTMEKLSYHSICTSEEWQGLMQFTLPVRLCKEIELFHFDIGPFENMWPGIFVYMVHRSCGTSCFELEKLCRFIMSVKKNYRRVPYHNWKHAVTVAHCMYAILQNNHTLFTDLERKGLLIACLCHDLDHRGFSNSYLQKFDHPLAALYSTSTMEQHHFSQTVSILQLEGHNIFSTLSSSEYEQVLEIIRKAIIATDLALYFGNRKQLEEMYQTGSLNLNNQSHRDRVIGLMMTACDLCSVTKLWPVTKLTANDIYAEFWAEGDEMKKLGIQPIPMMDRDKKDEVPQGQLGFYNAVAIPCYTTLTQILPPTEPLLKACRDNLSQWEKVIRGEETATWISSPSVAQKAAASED
# Method: biochemical
# Recorded conditions: human clone; 60 nM cAMP substrate; read-out: hPDE10A2 or rPDE10A2 pIC50 (converted)
Assay readout: IC50 (µM)
Give bare numbers, in µM.

Example results:
C[C@@H]1CCN([C@H](C)c2ccc(C(F)(F)F)cc2)C[C@H]1c1cc(C(F)F)nc2ncnn12 (relative stereo)
7.76
C[C@@H]1CCN([C@@H](C)c2ccc(C(F)(F)F)cc2)C[C@H]1c1cc(C(F)F)nc2ncnn12 (relative stereo)
6.31

Would you be so kind as to report IC50 for each listed record?
1. C[C@@H]1CCN(Cc2cc3ccccc3o2)C[C@H]1c1cc(C(F)F)nc2ncnn12.Cl
2. C[C@@H]1CCN(Cc2cccc(OC(F)F)c2)C[C@H]1c1cc(C(F)F)nc2ncnn12
3. Cc1cc([C@H](C)N2CC[C@@H](C)[C@H](c3cc(C(F)F)nc4ncnn34)C2)cc(Cl)n1 (single isomer, unassigned)

[4.68, 7.76, 1.1]
